- Test system: MT4
- experimental-details: Effective concentration required to inhibit the replication of HIV-1 in MT-4 human T4 lymphoblastoid cell lines
- Type: functional, cell-based
pEC50: −log10 of the molar value.
Listing of entries alongside the reported pEC50.
quantity-measured: pEC50

compound: CC(C)(C)C(=O)SCCOP(=O)(OCC=C=Cn1cnc2c(N)ncnc21)OCCSC(=O)C(C)(C)C
assay-target: MT4
quantity-measured: pEC50
sign: =
assay-value: 5.05

compound: Nc1ncnc2c1ncn2C=C=CCO (racemic)
assay-target: MT4
quantity-measured: pEC50
sign: <
assay-value: 4.00

Data provenance is ChEMBL document CHEMBL1135383.
